Reference for the values: paper PMC2990605

- Measurement description: Plasma pharmacokinetics of tosedostat, CHR-79888 and paclitaxel (LC-MS/MS, noncompartmental)
- Stated conditions: human, plasma, oral, 90 mg, Cmax, cohort 1: CHR-2797 90 mg, paclitaxel 135 mg m^−2; day 21, tosedostat without paclitaxel; plasma; mean (±s.e.m.)
Quantity name: Cmax
Don't forget the unit after the value.

Form field: reported Cmax of CC(C)C[C@@H](C(=O)N[C@H](C(=O)OC1CCCC1)c1ccccc1)[C@H](O)C(=O)NO
522 ng/mL

----------
- Measurement description: Plasma pharmacokinetics of tosedostat, CHR-79888 and paclitaxel (LC-MS/MS, noncompartmental)
- Stated conditions: human, plasma, oral, Cmax, cohort 4: CHR-2797 180 mg, paclitaxel 175 mg m^−2; day 22, tosedostat in combination with paclitaxel; plasma; mean (±s.e.m.)
Quantity name: Cmax (ng/mL)
Numbers only, in ng/mL.

// lookup Cmax for CC(C)C[C@@H](C(=O)N[C@H](C(=O)OC1CCCC1)c1ccccc1)[C@H](O)C(=O)NO
399
